assay target: GST-Ap-NF-kB RHD (Exaiptasia pallida (Aiptasia), UniProt A0A913YAJ5 2-422)
Sequence: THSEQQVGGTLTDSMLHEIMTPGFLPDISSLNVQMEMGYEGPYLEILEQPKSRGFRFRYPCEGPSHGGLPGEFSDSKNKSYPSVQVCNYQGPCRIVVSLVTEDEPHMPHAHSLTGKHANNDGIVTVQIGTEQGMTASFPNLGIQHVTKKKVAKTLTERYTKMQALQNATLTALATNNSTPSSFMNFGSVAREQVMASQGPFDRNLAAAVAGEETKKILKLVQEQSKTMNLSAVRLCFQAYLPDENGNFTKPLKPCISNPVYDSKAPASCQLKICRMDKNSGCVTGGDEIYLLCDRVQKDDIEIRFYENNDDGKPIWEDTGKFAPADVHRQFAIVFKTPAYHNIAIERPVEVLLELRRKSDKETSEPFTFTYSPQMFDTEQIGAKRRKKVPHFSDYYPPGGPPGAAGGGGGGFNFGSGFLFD
assay explanation: protein-binding microarray (PBM); PBM: ~300 nM protein, 6 mM HEPES pH 7.8, 80 mM KCl, 0.5 mM EDTA, 0.5 mM EGTA, 6% glycerol, 35 ng/ul poly-dIdC, 1% milk, 1 h, room temperature; Ap Aiptasia and Nv Nematostella (sea anemones) / Co Capsaspora / Aq Amphimedon (sponge) / Dm Drosophila / Hu human; RHD is the Rel homology domain; high values mean tight binding
condition description: dsDNA, one strand shown

- residues: "CCGATTAACATCAGGGTTTTACCTGATGTTAATCGGGTCTTGATTCGCTTGACGCTGCTG"
  binding signal: "2.62 z-score"
- residues: "CCGATTAACATCACCCCCCCCCGTGATGTTAATCGGGTCTTGATTCGCTTGACGCTGCTG"
  binding signal: "7.33 z-score"
- residues: "CCGATTAACATCAGAAAGCCCCCTGATGTTAATCGGGTCTTGATTCGCTTGACGCTGCTG"
  binding signal: "6.56 z-score"
- residues: "CCGATTAACATCAAGGGCTTTCCTGATGTTAATCGGGTCTTGATTCGCTTGACGCTGCTG"
  binding signal: "1.28 z-score"
- residues: "CCGATTAACATCAGAGTATTCCCTGATGTTAATCGGGTCTTGATTCGCTTGACGCTGCTG"
  binding signal: "3.08 z-score"
- residues: "CCGATTAACATCAAGGGGTTCCCTGATGTTAATCGGGTCTTGATTCGCTTGACGCTGCTG"
  binding signal: "4.99 z-score"
- residues: "CCGATTAACATCAGGTAATCCCATGATGTTAATCGGGTCTTGATTCGCTTGACGCTGCTG"
  binding signal: "2.95 z-score"
- residues: "CCGATTAACATCAAATATACCCATGATGTTAATCGGGTCTTGATTCGCTTGACGCTGCTG"
  binding signal: "2.13 z-score"
- residues: "CCGATTAACATCAATCTCCCCCCTGATGTTAATCGGGTCTTGATTCGCTTGACGCTGCTG"
  binding signal: "7.54 z-score"
- residues: "CCGATTAACATCACGGGGATTTCTGATGTTAATCGGGTCTTGATTCGCTTGACGCTGCTG"
  binding signal: "9.25 z-score"
- residues: "CCGATTAACATCAGGGGATTATATGATGTTAATCGGGTCTTGATTCGCTTGACGCTGCTG"
  binding signal: "7.99 z-score"
- residues: "CCGATTAACATCACCCACCCCCCTGATGTTAATCGGGTCTTGATTCGCTTGACGCTGCTG"
  binding signal: "3.58 z-score"
- residues: "CCGATTAACATCAAAGCACCCCCTGATGTTAATCGGGTCTTGATTCGCTTGACGCTGCTG"
  binding signal: "4.9 z-score"
- residues: "CCGATTAACATCAGGGGAGTTTATGATGTTAATCGGGTCTTGATTCGCTTGACGCTGCTG"
  binding signal: "8.25 z-score"
- residues: "CCGATTAACATCAGGGGGATGTATGATGTTAATCGGGTCTTGATTCGCTTGACGCTGCTG"
  binding signal: "4.97 z-score"
- residues: "CCGATTAACATCACTGTTTTCCCTGATGTTAATCGGGTCTTGATTCGCTTGACGCTGCTG"
  binding signal: "2.63 z-score"
- residues: "CCGATTAACATCACTACCCCCCCTGATGTTAATCGGGTCTTGATTCGCTTGACGCTGCTG"
  binding signal: "3.87 z-score"
- residues: "CCGATTAACATCACCCGTTTCCCTGATGTTAATCGGGTCTTGATTCGCTTGACGCTGCTG"
  binding signal: "2.8 z-score"
- residues: "CCGATTAACATCAACAATTTCCCTGATGTTAATCGGGTCTTGATTCGCTTGACGCTGCTG"
  binding signal: "3.9 z-score"
- residues: "CCGATTAACATCAGGCGTTCCCCTGATGTTAATCGGGTCTTGATTCGCTTGACGCTGCTG"
  binding signal: "5.26 z-score"
- residues: "CCGATTAACATCAAATTTCCCTATGATGTTAATCGGGTCTTGATTCGCTTGACGCTGCTG"
  binding signal: "4.13 z-score"
- residues: "CCGATTAACATCAATTGCCCCCCTGATGTTAATCGGGTCTTGATTCGCTTGACGCTGCTG"
  binding signal: "4.5 z-score"
- residues: "CCGATTAACATCACGAATCCCCCTGATGTTAATCGGGTCTTGATTCGCTTGACGCTGCTG"
  binding signal: "8.06 z-score"
- residues: "CCGATTAACATCAGAACATTCCCTGATGTTAATCGGGTCTTGATTCGCTTGACGCTGCTG"
  binding signal: "2.94 z-score"
- residues: "CCGATTAACATCAGAACTTTCCCTGATGTTAATCGGGTCTTGATTCGCTTGACGCTGCTG"
  binding signal: "4.2 z-score"
- residues: "CCGATTAACATCAGGAAAATCCCTGATGTTAATCGGGTCTTGATTCGCTTGACGCTGCTG"
  binding signal: "5.62 z-score"
- residues: "CCGATTAACATCAGTTCCCCCCATGATGTTAATCGGGTCTTGATTCGCTTGACGCTGCTG"
  binding signal: "6.36 z-score"
- residues: "CCGATTAACATCACATCTTCCCCTGATGTTAATCGGGTCTTGATTCGCTTGACGCTGCTG"
  binding signal: "4.99 z-score"
- residues: "CCGATTAACATCAAGTATCCCCCTGATGTTAATCGGGTCTTGATTCGCTTGACGCTGCTG"
  binding signal: "6.69 z-score"
- residues: "CCGATTAACATCAAAAGTTTCCCTGATGTTAATCGGGTCTTGATTCGCTTGACGCTGCTG"
  binding signal: "5.05 z-score"
- residues: "CCGATTAACATCAGGGGAACCCCTGATGTTAATCGGGTCTTGATTCGCTTGACGCTGCTG"
  binding signal: "12.5 z-score"
- residues: "CCGATTAACATCACATCTTTCCCTGATGTTAATCGGGTCTTGATTCGCTTGACGCTGCTG"
  binding signal: "2.24 z-score"
- residues: "CCGATTAACATCATATTCCCCCATGATGTTAATCGGGTCTTGATTCGCTTGACGCTGCTG"
  binding signal: "6.56 z-score"
- residues: "CCGATTAACATCAAATTCCCAGGTGATGTTAATCGGGTCTTGATTCGCTTGACGCTGCTG"
  binding signal: "2.43 z-score"
- residues: "CCGATTAACATCAGGGAAGACGTTGATGTTAATCGGGTCTTGATTCGCTTGACGCTGCTG"
  binding signal: "1.82 z-score"
- residues: "CCGATTAACATCAAGCAATCCCCTGATGTTAATCGGGTCTTGATTCGCTTGACGCTGCTG"
  binding signal: "6.44 z-score"
